test system: SK-OV-3 ovarian; experiment: NCI-60 one-dose screen, 48 h; details: 10 µM unless noted
The panel holds about 83,000 compounds, 20% with a hit somewhere; the sample as a whole holds those more often. Activity calls are given as the source filed them. Rule for the calls: active = growth percent below 10; inactive = the rest.
Answer with one of the outcomes given here: active, inactive

Use the examples below as a reference point.
Ic1ccc(Nc2nc3nonc3nc2Nc2ccc(I)cc2)cc1: active
O=C(Nc1nc(Cl)nc(Nc2ccc(N3CCOCC3=O)cc2)n1)c1ccc(Cl)s1: inactive
COc1ccc2c(c1)C(C)Cc1c(ncnc1-n1cnc3cc(C)ccc31)N2C (centres undefined): inactive
CCOC(=O)CNC1=C(Cl)C(=O)N(Cc2ccc(Cl)cc2)C1=O: inactive
CCOC(=O)/C(=C(/C)NCC(C)C)c1cc(O)c(O)c2c(C)cc(=O)[nH]c12: inactive
CCOC(=O)c1nnn(-c2no[n+]([O-])c2-c2ccc(OC)cc2)c1COc1cccc2cccnc12: inactive
Clc1ccc(-c2nc(C(Cl)Cl)nc3cc(-c4ccccc4)nn23)cc1: inactive
c1cc(OCCN2CCCCCC2)ccc1CNc1ccc2nc(CCC3CCCCC3)[nH]c2c1: inactive

Pending compound:
QUERY: Dear colleague, could you share the recorded outcome for CNC(=O)NCC1OC(n2cnc3c(NC(=O)Nc4ccccc4)ncnc32)C2OC(=O)CC12 (centres undefined) when you have a moment?
RESULT: inactive

----------
test system: PC-3 prostate; assay: NCI-60 one-dose screen, 48 h; details: 10 µM unless noted
About 83,000 compounds went through this panel and 20% of them were active in at least one assay; those are over-represented in the sample as a whole. Calls of active or inactive are those of the source. Rule for the calls: active = growth percent below 10; inactive = the rest.
Answer with one of the outcomes given here: active, inactive

Use the examples below as a reference point.
O=C(N/N=C/c1ccc(Cl)cc1)c1ccc(NC(=O)c2ccccn2)cc1: inactive
CC(=O)N1N=C(c2ccc(Nc3nc(Nc4ccc(F)cc4)nc(Nc4ccc(F)cc4)n3)cc2)CC1c1ccc(N(C)C)cc1 (centres undefined): inactive
CN(C)CCCn1c2c(c3cnccc3c1=O)C(=O)c1ccccc1-2: active

Pending molecule:
QUERY: Dear colleague, could you share the recorded outcome for `COc1cc2ncnc(Nc3ccc(S(=O)(=O)Nc4nccs4)cc3)c2cc1OCCCN1CCCC1` when you have a moment?
RESULT: inactive

----------
system: MDA-MB-231 breast; assay: NCI-60 one-dose screen, 48 h (100 = growth as untreated, 0 = no growth, -100 = all killed); conditions: 10 µM unless noted
The panel holds about 83,000 compounds, 20% with a hit somewhere; the sample as a whole holds those more often.
PARAMETER: growth (%)
Give bare numbers, in %.

COc1ccc2c(c1)c(-c1nc(-c3ccc4ccccc4c3)cs1)cn2C: 80.2
Cc1c(O)cc(-c2cnc(N/N=C/c3ccccc3)s2)c(O)c1C: 101
CN1C(=O)N2CN3CCCN(C3)CN3C(=S)NC1C23 (stereo not given): 104
COC1/C=C/OC2(C)Oc3c(C)c(O)c4c(O)c(c(/C=N/N(c5ccccc5)c5ccccc5)c(O)c4c3C2=O)NC(=O)C(C)=C/C=C/C(C)C(O)C(C)C(O)C(C)C(OC(C)=O)C1C (stereo not given): 90.9

QUERY: Quick one: growth of `Nc1cc(C(=O)O)cc(-n2c(O)c(C=C3N=c4ccccc4=N3)sc2=S)c1` ?
RESULT: 89.4
